# targetOfAssay: Gamma-aminobutyric acid receptor subunit alpha-1 (Homo sapiens) (UniProt P14867)
# Sequence (whole entry): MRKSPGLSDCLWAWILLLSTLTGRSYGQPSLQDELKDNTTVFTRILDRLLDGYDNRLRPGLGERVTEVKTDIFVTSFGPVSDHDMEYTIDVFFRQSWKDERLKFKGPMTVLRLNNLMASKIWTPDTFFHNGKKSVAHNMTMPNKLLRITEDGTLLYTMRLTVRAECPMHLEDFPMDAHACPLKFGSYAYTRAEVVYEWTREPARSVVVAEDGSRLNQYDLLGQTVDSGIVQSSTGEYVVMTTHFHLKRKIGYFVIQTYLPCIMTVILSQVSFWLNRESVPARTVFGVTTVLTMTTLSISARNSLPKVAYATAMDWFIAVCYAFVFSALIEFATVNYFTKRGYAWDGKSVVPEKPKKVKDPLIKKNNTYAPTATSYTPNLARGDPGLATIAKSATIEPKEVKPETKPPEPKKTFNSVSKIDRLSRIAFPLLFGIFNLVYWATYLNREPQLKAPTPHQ
# testMethodNotes: Maximum percent potentiation against gamma-aminobutyric acid (GABA) A receptor, alpha 1
# conditionsUsed: Xenopus laevis
valueType: Activity
Please format your answer as a value with the unit trailing.

Past entries and their recorded results:
>>> reportedmeasurement("Cc1ccc(-c2nc3ccc(C)cn3c2CC(=O)N(C)C)cc1")
"322%"
>>> reportedmeasurement("Oc1nc2c(c3nc(-c4ccccc4F)cn13)CN(Cc1ccccc1)CC2")
"56%"
>>> reportedmeasurement("Oc1nc2c(c3nc(-c4ccccc4F)cn13)CN(CC1CCCCC1)CC2")
"114%"
>>> reportedmeasurement("COc1cccc(-c2cn3c(O)nc4c(c3n2)CN(Cc2ccccc2)CC4)c1")
"123%"
>>> reportedmeasurement("O=C(OCc1ccccc1)N1CCc2nc(O)n3cc(-c4ccccc4F)nc3c2C1")
"5%"

Parameters: items (list). Returns: Activity for each item.
1. Oc1nc2c(c3nc(-c4ccccc4F)cn13)CN(Cc1cccnc1)CC2
2. CCN1CCc2nc(O)n3cc(-c4ccccc4F)nc3c2C1

**Result**
1. 29%
2. 0%

====

Assign Activity to each entry below.
# targetOfAssay: Gamma-aminobutyric acid receptor subunit alpha-2 (Homo sapiens) (UniProt P47869)
# Sequence (whole entry): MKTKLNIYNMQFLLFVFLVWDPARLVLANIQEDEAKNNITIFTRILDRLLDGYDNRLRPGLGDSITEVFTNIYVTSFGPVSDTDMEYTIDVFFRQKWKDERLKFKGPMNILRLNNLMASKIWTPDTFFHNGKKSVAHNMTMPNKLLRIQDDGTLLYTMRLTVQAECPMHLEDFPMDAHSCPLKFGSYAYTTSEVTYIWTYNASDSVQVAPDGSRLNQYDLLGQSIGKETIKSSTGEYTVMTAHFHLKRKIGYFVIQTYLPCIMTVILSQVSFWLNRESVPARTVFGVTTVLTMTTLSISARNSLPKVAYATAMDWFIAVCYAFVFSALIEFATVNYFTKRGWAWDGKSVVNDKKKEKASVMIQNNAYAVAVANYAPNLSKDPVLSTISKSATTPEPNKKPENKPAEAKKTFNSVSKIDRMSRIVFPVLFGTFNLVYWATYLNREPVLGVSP
# testMethodNotes: Maximum percent potentiation against gamma-aminobutyric acid (GABA) A receptor, alpha 2
# conditionsUsed: Xenopus laevis
Please format your answer as a value with the unit trailing.

>>> reportedmeasurement("Oc1nc2c(c3nc(-c4ccccc4F)cn13)CN(CC1CCCCC1)CC2")
"71%"
>>> reportedmeasurement("CC(=O)N1CCc2nc(O)n3cc(-c4ccccc4F)nc3c2C1")
"0%"
>>> reportedmeasurement("Cc1ccc(-c2nc3ccc(C)cn3c2CC(=O)N(C)C)cc1")
"291%"

Please turn your attention to the following entry.
**Query** Specify reported Activity for the molecule shown: Oc1nc2c(c3nc(-c4ccccc4F)cn13)CN(CC1CC1)CC2
**Result** 36%
